# System: CHRM2 (Homo sapiens, UniProt P08172)
# Sequence (P08172 whole entry): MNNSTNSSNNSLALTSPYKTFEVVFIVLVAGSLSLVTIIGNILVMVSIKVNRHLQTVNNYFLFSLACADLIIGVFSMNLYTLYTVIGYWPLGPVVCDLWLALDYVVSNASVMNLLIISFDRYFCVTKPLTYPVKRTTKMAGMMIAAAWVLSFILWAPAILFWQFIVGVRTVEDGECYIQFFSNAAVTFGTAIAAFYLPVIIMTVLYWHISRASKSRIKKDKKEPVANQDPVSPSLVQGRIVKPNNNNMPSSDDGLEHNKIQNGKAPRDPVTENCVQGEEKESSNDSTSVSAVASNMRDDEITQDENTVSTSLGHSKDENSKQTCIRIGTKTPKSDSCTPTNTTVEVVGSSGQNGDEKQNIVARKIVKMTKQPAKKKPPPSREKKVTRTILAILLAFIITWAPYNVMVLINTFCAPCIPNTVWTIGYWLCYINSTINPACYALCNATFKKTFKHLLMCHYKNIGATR
# Measurement Notes: GPCR reactivity screen, PathHunter β-Arrestin, antagonist assay CHRM2; note: test concentration or dose not given here
# Assay type: cell-based
# Assay Context: antagonist mode; agonist challenge at EC80
CHRM2 (Antagonist) percent inhibition by entry:
Form entry: value (%) — number only.

Task item: What CHRM2 (Antagonist) percent inhibition value was documented for this compound, C=C(C)[C@@H]1CCC(C)=C[C@H]1c1c(O)cc(C)cc1O [CBD-C1, cannabidiorcol] ?
Reply: 2

Task item: Data request, read-out CHRM2 (Antagonist) percent inhibition, for CCCCc1cc(O)c(C/C=C(\C)CCC=C(C)C)c(O)c1C(=O)O [CBGA-C4, cannabigerolic acid butyl]
Reply: 19

Task item: Reported CHRM2 (Antagonist) percent inhibition, compound CCCc1cc(O)c(C/C=C(\C)CCC=C(C)C)c(O)c1 [CBGV, cannabigerivarin] : ____
Reply: 28

Task item: Recorded CHRM2 (Antagonist) percent inhibition of CCCCCc1cc2c(c(O)c1C(=O)O)C1C3C(CCC3(C)O2)C1(C)C (stereo not drawn) [CBLA, cannabicyclolic acid] , please.
Reply: −19

Task item: Entry CCCc1cc(O)c2c(c1)OC(C)(C)[C@@H]1CCC(C)=C[C@@H]21 [THCV, tetrahydrocannabivarin] has what CHRM2 (Antagonist) percent inhibition?
Reply: 42

Task item: Would you mind telling me what CHRM2 (Antagonist) percent inhibition value was observed for C=C(C)[C@@H]1CCC(C)=C[C@H]1c1c(O)cc(CC)cc1O [CBD-C2, cannabidol-C2] ?
Reply: 21

Task item: For the compound CCCCCc1cc(O)c(C/C=C(\C)CCC=C(C)C)c(O)c1 [CBG, cannabigerol] , what CHRM2 (Antagonist) percent inhibition is on record?
Reply: 20

Task item: I am curious: what CHRM2 (Antagonist) percent inhibition value has been reported for CCCCCc1cc(O)c(C/C=C(\C)CCC=C(C)C)c(O)c1C(=O)O [CBGA, cannabigerolic acid] ?
Reply: 12

More entries:
Task item: What value of CHRM2 (Antagonist) percent inhibition has been recorded for this entry: CCCCCc1cc(O)c2c(c1)OC(C)(CCC=C(C)C)C=C2 (stereo not drawn) [CBC, cannabichromene]
Reply: 89

Task item: Data request, read-out CHRM2 (Antagonist) percent inhibition, for C=C(C)[C@@H]1CCC(C)=C[C@H]1c1c(O)cc(CCCCC)cc1O [CBD, cannabidol]
Reply: 81

Task item: Entry under review: CCCCc1cc(O)c(CC=C(C)CCC=C(C)C)c(O)c1 [CBG-C4, cannabigerol butyl] . Reported CHRM2 (Antagonist) percent inhibition?
Reply: 13

Task item: What CHRM2 (Antagonist) percent inhibition value was documented for this compound, C=C(C)[C@@H]1CCC(C)=C[C@H]1c1c(O)cc(CCCCC)c(C(=O)O)c1O [CBDA, cannabidiolic acid] ?
Reply: −10

Task item: Using the record for CCCCCc1cc2c(c(O)c1C(=O)O)C=CC(C)(CCC=C(C)C)O2 (stereo not drawn) [CBCA, cannabichromenic acid] , report its CHRM2 (Antagonist) percent inhibition.
Reply: 7

Task item: Look up CHRM2 (Antagonist) percent inhibition for this compound: CCCc1cc(O)c(C/C=C(\C)CCC=C(C)C)c(O)c1C(=O)O [CBGVA, cannabigerovarinic acid]
Reply: 23

Task item: // query CHRM2 (Antagonist) percent inhibition value for entry CCCCCc1cc(O)c2c(c1)OC(C)(C)c1ccc(C)cc1-2 [CBN, cannabinol]
Reply: 7
